Molecular target: PfNMT (Plasmodium falciparum, UniProt Q9U419)
Sequence (Q9U419 1-410): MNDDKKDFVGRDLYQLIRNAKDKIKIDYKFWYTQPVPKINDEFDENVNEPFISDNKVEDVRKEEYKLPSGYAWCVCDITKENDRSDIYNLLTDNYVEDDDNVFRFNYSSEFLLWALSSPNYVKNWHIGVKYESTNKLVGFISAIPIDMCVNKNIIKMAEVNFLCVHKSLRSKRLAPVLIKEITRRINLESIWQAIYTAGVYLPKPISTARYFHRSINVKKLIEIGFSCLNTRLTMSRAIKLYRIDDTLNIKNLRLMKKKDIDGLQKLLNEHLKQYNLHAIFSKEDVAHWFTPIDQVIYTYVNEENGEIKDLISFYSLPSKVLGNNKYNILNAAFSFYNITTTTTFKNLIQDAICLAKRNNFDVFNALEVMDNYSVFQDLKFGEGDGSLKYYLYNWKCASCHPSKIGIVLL
Experiment: NMT enzyme inhibition, CPM fluorescence assay (PfNMT)
Format: biochemical
readout: Ki (nM)

INSERT INTO assay_data (compound, observed) VALUES
  ('COc1cccc(COC(=O)c2sc3ccccc3c2OC2CCNCC2)c1 [compound 1]', 832);

====

# reported LELP; entries follow
Biological target: PfNMT (Plasmodium falciparum)
Sequence (Q9U419 1-410): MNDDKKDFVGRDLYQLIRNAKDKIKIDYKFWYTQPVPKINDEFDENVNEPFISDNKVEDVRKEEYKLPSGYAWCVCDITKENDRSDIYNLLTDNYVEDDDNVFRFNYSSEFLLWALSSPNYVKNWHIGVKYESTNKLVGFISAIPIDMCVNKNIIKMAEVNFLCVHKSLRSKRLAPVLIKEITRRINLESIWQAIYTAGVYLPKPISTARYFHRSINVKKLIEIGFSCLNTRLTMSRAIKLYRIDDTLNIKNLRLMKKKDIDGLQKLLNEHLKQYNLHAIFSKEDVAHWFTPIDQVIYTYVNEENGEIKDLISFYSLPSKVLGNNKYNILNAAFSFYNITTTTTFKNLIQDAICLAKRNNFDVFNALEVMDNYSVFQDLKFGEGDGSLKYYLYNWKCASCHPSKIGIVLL
Assay: LELP (cLogP/LE, PfNMT LE)
readout: LELP

INSERT INTO results (compound, readout, observed) VALUES
  ('O=C(OCCc1ccccc1)c1sc2ccccc2c1OC1CCNCC1 [4a]', 'LELP', 14.3),
  ('COC(c1ccccc1)c1nnc(-c2sc3ccccc3c2OC2CCNCC2)o1 (centres unmarked) [23f]', 'LELP', 10.5),
  ('Cc1nn(C)c(C)c1Cc1nnc(-c2sc3ccccc3c2OC2CCNCC2)o1 [34c]', 'LELP', 5.5),
  ('OC(c1ccccc1)c1nnc(-c2sc3ccccc3c2OC2CCNCC2)o1 (centres unmarked) [23g]', 'LELP', 7.9),
  ('O=C(OCCCc1ccccc1)c1sc2ccccc2c1OC1CCNCC1 [4d]', 'LELP', 18.6);

====

Target: PbNMT (Plasmodium berghei)
Sequence (A0A509ARF4 entry or part of it): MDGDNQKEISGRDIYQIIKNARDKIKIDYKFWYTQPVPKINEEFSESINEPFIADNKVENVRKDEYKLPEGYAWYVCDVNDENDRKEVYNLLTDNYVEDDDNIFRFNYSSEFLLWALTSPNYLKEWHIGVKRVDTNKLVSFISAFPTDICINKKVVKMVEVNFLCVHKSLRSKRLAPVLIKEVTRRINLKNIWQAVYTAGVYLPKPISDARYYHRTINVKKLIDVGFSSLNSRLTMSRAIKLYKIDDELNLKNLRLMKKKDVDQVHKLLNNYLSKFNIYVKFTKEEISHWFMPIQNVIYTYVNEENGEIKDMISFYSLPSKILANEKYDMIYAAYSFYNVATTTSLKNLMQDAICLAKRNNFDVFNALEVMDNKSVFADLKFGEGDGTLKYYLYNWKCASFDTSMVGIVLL
pKi: −log10 of the molar value.
readout: pKi

INSERT INTO measurements (compound, observed) VALUES
  ('Cc1nn(C)c(C)c1Cc1nnc(-c2sc3ccccc3c2OC2CCNCC2)o1 [34c]', 7.85);

====

Biological target: PfNMT (Plasmodium falciparum, UniProt Q9U419)
Assay: LELP (cLogP/LE, PfNMT LE)
# LELP per entry
readout: LELP

INSERT INTO assay_data (compound, readout, observed) VALUES
  ('COc1cc(CCOC(=O)c2sc3ccccc3c2OC2CCNCC2)cc(OC)c1 [4c]', 'LELP', 12.4),
  ('c1ccc(Cc2noc(-c3sc4ccccc4c3OC3CCNCC3)n2)cc1 [9a]', 'LELP', 12.4),
  ('CC(C)(c1ccccc1)c1nnc(-c2sc3ccccc3c2OC2CCNCC2)o1 [23b]', 'LELP', 14.1),
  ('Cc1noc(C)c1Cc1nnc(-c2sc3ccccc3c2OC2CCNCC2)o1 [34b]', 'LELP', 6.1),
  ('Cc1nn(C)c(C)c1CCc1nnc(-c2sc3ccccc3c2OC2CCNCC2)o1 [35c]', 'LELP', 8.2);
